Test system: RAW-Dual
Assay: NF-kB SEAP reporter activity, fold change vs agonist alone; cytotoxicity flag (confluency mask): not cytotoxic; higher = enhanced NF-kB activity
Conditions: agonist: Pam3CSK4 (TLR2/1) 0.1 ug/mL
Over roughly 2,900 compounds, “NF-kB SEAP reporter activity, fold change vs agonist alone” has its median near 0.99; the highest 2% begin near 2.6. The sample holds the highest values, similar compounds and a random draw of the others, so the mix is not that of the screen.
Overview of recorded NF-kB SEAP reporter activity for various compounds
Provide a numeric answer; units are not to be included.

Task: Notebook: pull reported NF-kB SEAP reporter activity for RAW-Dual, entry CC(=O)N1CCN(c2ccc(NC(=O)Cc3cnc(-c4ccnc(F)c4)c(C)c3)nc2)CC1 (library stock concentration (final ~1000-fold dilution): 10 mM)
Output: 1.03

Task: # query: NF-kB SEAP reporter activity | item CC(=O)OC12COC1CC(O)C1(C)C(=O)C(O)C3=C(C)C(OC(=O)C(O)C(NC(=O)OC(C)(C)C)c4ccccc4)CC(O)(C(OC(=O)c4ccccc4)C21)C3(C)C (configuration not stated) (library stock concentration (final ~1000-fold dilution): 10 mM) | system: RAW-Dual
Output: 0.841
